# System: SF-268 CNS
# assay text: NCI tumour cell line growth inhibition, 48 h
measurement kind: TGI (µM)
Quick note: give the figure in µM, leave out the unit.

Problem: For the molecule CCCCCNC(=O)OC1CCn2c1nc1c2C(=O)C(C)=C(N2CC2)C1=O (stereo not given) , give its reported TGI.
Solution: 4.84

Problem: Consider the molecule NC1=NN(c2ccccc2)C(=O)C1/C(=N\NC(=O)c1cc2ccccc2cc1O)C(=O)Nc1ccc(Cl)cc1 (stereo not given) . State its measured TGI.
Solution: 89.3

* * *

# Test system: OVCAR-4 ovarian
# assay text: NCI tumour cell line growth inhibition, 48 h
Answer each item with its documented GI50.

Problem: Fill: GI50 (OVCAR-4 ovarian) for this compound CCn1c(SC)nnc1-c1cc2c([nH]c3ccccc32)c(-c2cccc(O)c2)n1
Solution: 2750 nM

Problem: Find the measured GI50 of O=C1C(=O)c2c(ccc3ccccc23)-c2ccccc21 with OVCAR-4 ovarian as test system.
Solution: 1210 nM

Problem: System OVCAR-4 ovarian. Read-out GI50. Item O=C(COC(=O)[C@H](C[Se][Se]C[C@H](NC(=O)c1ccc(Br)cc1F)C(=O)OCC(=O)c1ccc(F)cc1)NC(=O)c1ccc(Br)cc1F)c1ccc(F)cc1 . Report value.
Solution: 689 nM

Problem: Fill: GI50 (OVCAR-4 ovarian) for this compound Cn1c(=O)c(Oc2ccc(F)cc2F)cc2cnc(NC3CCC(O)CC3)nc21 (centres undefined)
Solution: > 25000 nM

* * *

Please respond with reported TGI for every item in the list.
# Test system: SN12C renal
# assay text: NCI tumour cell line growth inhibition, 48 h

Problem: Specify reported TGI for the compound shown: CC1=CC(=O)N2[C@H](OC[C@@H]2C(C)C)O1
Solution: > 100 µM

Problem: Given the compound CCNC(=O)O/N=C1/C=C2CC[C@@H]3C(CC[C@@]4(C)C3CC[C@@H]4OC(=O)NCC)[C@@]2(C)CC1 (some centres not stated) , write its reported TGI.
Solution: 14.6 µM

Problem: Note TGI for the compound shown: O=[N+]([O-])C1(CO)COC(CCc2ccccc2)OC1 (configuration not stated)
Solution: > 100 µM

Problem: Read the entry CC(=O)OCc1cc2c(s1)C(=O)c1sccc1C2=O and write its reported TGI.
Solution: 0.261 µM

Problem: Specify reported TGI for the compound shown: C=CCCC1(CCP(=O)(c2ccccc2)c2ccccc2)OCCO1
Solution: > 100 µM

Problem: Give me measured TGI, please, for this compound: O=[N+]([O-])c1cccc2c1[nH]c1c(-c3ccccc3)nccc12
Solution: > 73.1 µM

Problem: State, in one line, measured TGI of Cc1c(N(Cc2ccccc2)Cc2ccccc2)nc(S(C)(=O)=O)nc1S(C)(=O)=O
Solution: 4.28 µM

Problem: State, in one line, measured TGI of Cc1cccc2c1Oc1ncccc1C2NC(=O)CN(C)C (configuration not stated)
Solution: > 10 µM

Problem: Identify the reported TGI for the following entry. CC(C)S1=C2C(=O)CC(C)(C)CC2=Nc2ccccc21 (configuration not stated)
Solution: > 100 µM

Problem: Look up TGI of CC1=C2[C@@H](c3ccccc3)C3C=CC2(C=C3C(F)(F)F)N(C(=O)NC2CCCCC2)C1=O (some centres not stated) and report it.
Solution: > 100 µM

Problem: Give TGI for the following compound: NS(=O)(=O)c1cc2c(cc1Cl)NC(C(=O)NNC(=O)c1ccncc1)=NS2(=O)=O
Solution: > 100 µM

Problem: Return the recorded TGI value; entry: O=C1c2sccc2C(=O)c2c(CO)csc21
Solution: 22.4 µM

Problem: Please look at this compound and report its TGI: Cc1ccc(C)c(C(=O)CC2OC(O)C(Cl)C2Cl)c1 (configuration not stated)
Solution: > 100 µM

Problem: For the compound CN(C)C(=O)c1cc2cnc(Nc3ccc(N4CCNCC4)cn3)nc2n1C1CCCC1 , give its measured TGI value.
Solution: 93.6 µM

Problem: Supply measured TGI of C/C(=C\CNc1ncnc2c1ncn2CCC#N)CO in your reply.
Solution: > 100 µM

Problem: Give TGI for Cn1c(=O)c2c(n(C)c1=O)n1c(=O)c3ccccc3nc1n2C
Solution: > 100 µM

Problem: Determine from records and report TGI for CC(C)[C@H](NC(=O)OCc1ccccc1)C(=O)N[C@H](/C=C/C(=O)OC(C)(C)C)CO
Solution: > 100 µM

Problem: // Input: COc1cc([C@H]2c3cc(O)c(OC)cc3C[C@]3(O)[C@@H]2CO[C@@H]3O)ccc1O . Output its TGI only.
Solution: > 100 µM

Problem: Input COc1cc2nccc(Oc3ccc(NC(=O)C4(C(=O)Nc5ccc(F)cc5)CC4)cc3)c2cc1OC , output reported TGI.
Solution: > 54.2 µM

Problem: Give the value of TGI reported for the following: COc1cc(CC2C(=O)OCC2Cc2ccc(OC)c(OC)c2)ccc1O (configuration not stated)
Solution: > 100 µM

Problem: Given CCOC(=O)NC/C=C/CO , respond with its TGI.
Solution: > 100 µM

Problem: Fill in reported TGI for this entry: Nc1nc(N)c(-c2ccccc2)c(C(=O)Nc2nccs2)n1
Solution: > 100 µM

Problem: Give me measured TGI, please, for this compound: Oc1ccc(CCNc2nc3ccccc3c3[nH]c4ccccc4c23)cc1
Solution: 2.62 µM

Problem: Look up and report measured TGI for this entry: O=C(/C=C/N1CCN(c2cccc(Cl)c2)CC1)c1ccc(Cl)cc1
Solution: 65 µM

Problem: Specify reported TGI for the compound shown: CN1Cc2c(ccc3c2OCO3)[C@@H]2[C@H](O)Cc3cc4c(cc3[C@@H]21)OCO4
Solution: > 39.7 µM

Problem: Fill in TGI for record O=C(CO[N+](=O)[O-])OCC(=O)c1ccccc1
Solution: > 100 µM

Problem: Report TGI, nothing else, for this compound: Nc1nc(Nc2cc(F)c(Cl)c(F)c2)cc(=O)[nH]1
Solution: > 100 µM

Problem: Please report TGI for the following compound: CC(=O)Oc1cc(OC(C)=O)c2c(c1C)CC[C@@H]1[C@@H]2CC[C@]2(C)[C@@H](OC(C)=O)CC[C@@H]12
Solution: 33.7 µM

Problem: Retrieve TGI measured for O=C(c1ccccc1)c1ccc(N2C(=O)C3C4c5ccccc5C(/C=C/C(=O)c5ccccn5)(c5ccccc54)C3C2=O)cc1 (configuration not stated) and print it.
Solution: > 100 µM

Problem: Please give measured TGI of the following entry: CCCCC(C)(C/C=C/[C@@H]1[C@@H](C(O)CCCCCC(=O)OC)C(=O)C[C@H]1O[Si](C)(C)C(C)(C)C)O[Si](C)(C)C (some centres not stated)
Solution: > 100 µM

Problem: Answer with the recorded TGI of CCc1c[nH]c2ncnc(N3CC[C@](N)(CNC(=O)c4ccc(F)cc4F)C3)c12 only.
Solution: > 100 µM

Problem: State its TGI for this compound: N#Cc1c2c(c(Nc3ccc(Cl)cc3)n3c1nc1ccccc13)CCCC2
Solution: > 100 µM

Problem: Specify measured TGI for COc1ccc(N=C(SSC(=Nc2ccc(OC)cc2)c2ccc([N+](=O)[O-])o2)c2ccc([N+](=O)[O-])o2)cc1 .
Solution: 4.87 µM

Problem: Check the records and state TGI for CC(C)(CCc1nc2ccccc2[nH]1)C(=O)O
Solution: > 100 µM

Problem: Assign TGI to the following record: CCCCCCCCCCCC1=C(O)C(=O)C=C(O)C1=O
Solution: 12.9 µM

Problem: Check the records and state TGI for COC(=O)/C(=C/c1ccc(OC)cc1)c1cc(OC)c(OC)c(OC)c1
Solution: > 100 µM

Problem: Entry O=C1C[C@@]23CCC4(CC2=CCC[C@H]3O1)OCCO4 needs its TGI filled in; supply it.
Solution: > 100 µM

Problem: Please give the documented TGI of OCCn1c(-c2ccncc2)c(-c2ccc(F)cc2)c2ncccc21
Solution: > 25 µM

Problem: Please supply the value of reported TGI for the item COc1ccc2c(C=O)c3n(c(=O)c2c1OC)CCc1cc2c(cc1-3)OCO2
Solution: > 100 µM

Problem: Write down TGI measured for item COc1ccc(-c2ccc(/C=N/n3c(COc4ccc(Cl)c(C)c4)nn(CN4CCOCC4)c3=S)o2)c([N+](=O)[O-])c1
Solution: 48.1 µM

Problem: Indicate its recorded TGI; the compound in question is Cc1ccc(C(=O)C2CC3(CCC2(O)c2ccc(C)cc2)CC(=O)Nc2ccccc2C3=O)cc1 (configuration not stated)
Solution: > 100 µM

Problem: Provide one value: measured TGI of Nc1nc2c(c(-c3ccc(F)cc3)n1)COC/C2=C\c1ccc(F)cc1
Solution: > 100 µM
